- target_or_system: Carbonic anhydrase 2 (Homo sapiens)
experimental_endpoint: Ki (nM)

[1] CCCNC1CCS(=O)(=O)c2sc(S(N)(=O)=O)cc21.Cl (configuration not stated)
[2] Cl.NC1CCS(=O)(=O)c2sc(S(N)(=O)=O)cc21 (configuration not stated)
Asked: From the items above, decide which of 1 and 2 has the lower Ki reading. When you have decided, please share the label of that item.
Given back: 1
